Biological target: hEP1 (Homo sapiens)
Construct: expressed in transfected cells
Sequence (P34995 whole entry): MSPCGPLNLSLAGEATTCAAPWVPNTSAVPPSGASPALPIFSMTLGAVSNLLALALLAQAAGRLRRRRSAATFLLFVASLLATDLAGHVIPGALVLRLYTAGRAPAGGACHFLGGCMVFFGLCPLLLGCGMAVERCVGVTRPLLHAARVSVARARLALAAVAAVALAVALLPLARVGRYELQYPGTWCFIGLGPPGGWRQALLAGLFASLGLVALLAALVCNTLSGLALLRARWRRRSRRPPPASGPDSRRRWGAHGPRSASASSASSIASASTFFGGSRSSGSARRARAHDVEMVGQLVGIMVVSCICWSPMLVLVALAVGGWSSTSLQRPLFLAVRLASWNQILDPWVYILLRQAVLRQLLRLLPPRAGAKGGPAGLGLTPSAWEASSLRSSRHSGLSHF
Experiment: FLIPR calcium signal, EP1
Assay type: cell-based
Conditions: HEK-293(EBNA)
ASSAY READOUT: Ca2+ Signal-EC50 (nM) EP1

A selection of reference data follows.
INSERT INTO assay_data (molecule, measured_target, assay_readout, reported_result) VALUES
  ('CCCCCC(O)c1ccc([C@@H]2[C@@H](CCCCCCC(=O)O)[C@H](Cl)C[C@H]2O)cc1 (stereo partly shown)', 'hEP1 (Homo sapiens)', 'Ca2+ Signal-EC50 (nM) EP1', 'not active'),
  ('CCCCCC(O)c1ccc([C@@H]2[C@@H](Cc3cccc(CCC(=O)O)c3)[C@H](Cl)C[C@H]2O)cc1 (stereo partly shown)', 'hEP1 (Homo sapiens)', 'Ca2+ Signal-EC50 (nM) EP1', 'not active'),
  ('CCCCCC(O)c1ccc([C@@H]2[C@@H](C/C=C\CCCC(=O)O)[C@H](Cl)C[C@@H]2O)cc1 (stereo partly shown)', 'hEP1 (Homo sapiens)', 'Ca2+ Signal-EC50 (nM) EP1', 'not active'),
  ('CCCCCC(O)c1ccc([C@@H]2[C@@H](C/C=C\CCCC(=O)O)[C@H](Cl)C[C@H]2O)cc1 (single isomer, unassigned) [Entry 13]', 'hEP1 (Homo sapiens)', 'Ca2+ Signal-EC50 (nM) EP1', 'not active'),
  ('CCCC1(C(O)c2cccc([C@@H]3[C@@H](Cc4cccc(CCC(=O)O)c4)[C@H](Cl)C[C@H]3O)c2)CCC1 (stereo partly shown)', 'hEP1 (Homo sapiens)', 'Ca2+ Signal-EC50 (nM) EP1', 'not active');

Q: Data request, read-out Ca2+ Signal-EC50 (nM) EP1, for CCCCCC(O)c1cccc([C@@H]2[C@@H](C/C=C\CCCC(=O)O)[C@H](Cl)C[C@H]2O)c1 (stereo partly shown)
A: not active

Q: Also CCCCCC(O)c1ccc([C@@H]2[C@@H](C/C=C\CCCC(=O)O)[C@H](Cl)C[C@H]2O)cc1 (single isomer, unassigned) [Entry 12] ?
A: not active
